Experiment: Photophysical characterization (absorption, emission, QY, lifetime)
Assay type: physicochemical
Conditions: in ACN
Kindly apply the following: satisfied if Stokes shift is less than 6000 cm^–1, not satisfied in every other case.

>>> print(df.to_string())
                                   molecule  category_label
0           CCOC(=O)c1c(O)nn2c(N(C)C)cccc12       satisfied
1            COc1nn2ccccc2c1-c1ccc2ccccc2n1       satisfied
2  COc1nn2ccccc2c1/C=C/c1ccc([N+](=O)[O-])cc1   not satisfied
3  COc1nn2ccccc2c1/C=C/c1ccc(S(C)(=O)=O)cc1       satisfied
4  Oc1nn2ccccc2c1/C=C/c1cc(F)c(-c2ccccc2)c(F)c1F [Compound 11b]       satisfied
5      CCOC(=O)c1c(=O)n(Cc2ccccc2)n2ccccc12   not satisfied
6  Oc1nn2ccccc2c1-c1ccc2cc(-c3ccccc3)ccc2n1       satisfied
7              CCOC(=O)c1c(=O)n(C)n2ccccc12   not satisfied

The values you see were collected from paper PMC12257544.
